- Subject Of Test: GLP1R (Homo sapiens)
- Sequence (P43220 24-463): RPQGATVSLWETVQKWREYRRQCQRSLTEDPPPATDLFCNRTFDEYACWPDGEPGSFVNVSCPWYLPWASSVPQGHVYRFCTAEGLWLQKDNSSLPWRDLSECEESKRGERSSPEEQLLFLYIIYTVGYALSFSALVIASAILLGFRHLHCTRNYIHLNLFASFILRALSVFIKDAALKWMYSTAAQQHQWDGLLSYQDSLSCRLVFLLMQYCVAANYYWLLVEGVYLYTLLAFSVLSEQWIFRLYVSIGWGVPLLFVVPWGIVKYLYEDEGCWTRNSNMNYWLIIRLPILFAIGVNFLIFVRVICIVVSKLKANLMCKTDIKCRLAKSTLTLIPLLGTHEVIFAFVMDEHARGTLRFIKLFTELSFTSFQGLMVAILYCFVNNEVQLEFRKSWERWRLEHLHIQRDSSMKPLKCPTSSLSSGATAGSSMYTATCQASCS
- Test Protocol: GLP1R cAMP HTRF assay, HEK293/GLP-1R/CRE/Luc (HEK293T cells)
- Type: cell-based
- Condition Description: read-out: EC50
Readout: EC50

In the examples that follow, each entry is paired with its recorded EC50.
[[record]]
compound = "O=C(O)c1ccc2nc(CN3CC=C(c4cc(OCc5ccc(C#CC6CC6)cc5F)ccc4F)CC3)n(C[C@@H]3CCO3)c2c1"
readout = "EC50"
endpoint_value = "≤ 150 nM"

[[record]]
compound = "O=C(O)c1ccc2nc(CN3CC=C(c4cccc(OCc5ccc(OC(F)(F)F)nc5)n4)CC3)n(C[C@@H]3CCO3)c2c1"
readout = "EC50"
endpoint_value = "≤ 150 nM"

[[record]]
compound = "CC(c1ncco1)n1c(CN2CC=C(c3cccc(OCc4ccc(Cl)cc4F)n3)CC2)nc2ccc(C(=O)O)cc21 (stereo not drawn)"
readout = "EC50"
endpoint_value = "≤ 1000 nM"


Entry O=C(O)c1ccc2nc(CN3CC=C(c4cccc(OCc5ccccc5)n4)CC3)n(C[C@@H]3CCO3)c2c1 : reported EC50 = ?
≤ 150 nM

* * *

- Subject Of Test: GLP1R (Homo sapiens)
- Test Protocol: GLP1R cAMP HTRF assay, HEK293/GLP-1R/CRE/Luc (HEK293T cells)
- Assay type: cell-based
- Condition Description: mean ± spread, read-out: HEK293T cells EC50
Readout: EC50 (nM)

[[record]]
molecule = "N#Cc1ccc(COc2cccc(C3=CCN(Cc4nc5ccc(C(=O)O)nc5n4C[C@@H]4CCO4)CC3)n2)c(F)c1 [drawing 69]"
subject_of_test = "GLP1R (Homo sapiens)"
endpoint_value = 0.168

[[record]]
molecule = "O=C(O)c1ccc2nc(CN3CC=C(c4ccnc(OCc5ccc(Cl)cc5F)n4)CC3)n(C[C@@H]3CCO3)c2c1 [drawing 59]"
subject_of_test = "GLP1R (Homo sapiens)"
endpoint_value = 1.8

[[record]]
molecule = "N#Cc1ccc(COc2cncc(C3CCN(Cc4nc5ccc(C(=O)O)cc5n4C[C@@H]4CCO4)CC3)n2)c(F)c1 [drawing 62, reference compound]"
subject_of_test = "GLP1R (Homo sapiens)"
endpoint_value = 15.9

[[record]]
molecule = "O=C(O)c1ccc2nc(CN3CCC(c4cncc(OCc5ccc(Cl)cc5F)n4)CC3)n(C[C@@H]3CCO3)c2c1 [drawing 60, reference compound]"
subject_of_test = "GLP1R (Homo sapiens)"
endpoint_value = 10.5

[[record]]
molecule = "N#Cc1ccc(COc2cccc(C3CCN(Cc4nc5ccc(C(=O)O)nc5n4C[C@@H]4CCO4)CC3)n2)c(F)c1 [reference compound]"
subject_of_test = "GLP1R (Homo sapiens)"
endpoint_value = 0.3


A = O=C(O)c1ccc2nc(CN3CC=C(c4cccc(OCc5ccc(Cl)cc5F)n4)CC3)n(C[C@@H]3CCO3)c2c1 [drawing 65]
B = N#Cc1ccc(COc2cccc(C3=CCN(Cc4nc5ccc(C(=O)O)cc5n4C[C@@H]4CCO4)CC3)n2)c(F)c1 [drawing 55]
C = O=C(O)c1ccc2nc(CN3CCC(c4ccnc(OCc5ccc(Cl)cc5F)n4)CC3)n(C[C@@H]3CCO3)c2c1 [drawing 58, reference compound]
// ascending sort on recorded EC50 Record the ranking as a list of labels in the requested order.
B, A, C
(B: 0.219 nM, A: 0.393 nM, C: 1.98 nM)
